Biological target: T1, hMC3-R (human, UniProt P41968 1-323)
T1 construct: whole, on cells; Assayed as membranes of CHO-K1 cells expressing the receptor; also called hMC-R receptor subtype 3; melacortin-3 (MC3-R)
T1 sequence (P41968 whole entry): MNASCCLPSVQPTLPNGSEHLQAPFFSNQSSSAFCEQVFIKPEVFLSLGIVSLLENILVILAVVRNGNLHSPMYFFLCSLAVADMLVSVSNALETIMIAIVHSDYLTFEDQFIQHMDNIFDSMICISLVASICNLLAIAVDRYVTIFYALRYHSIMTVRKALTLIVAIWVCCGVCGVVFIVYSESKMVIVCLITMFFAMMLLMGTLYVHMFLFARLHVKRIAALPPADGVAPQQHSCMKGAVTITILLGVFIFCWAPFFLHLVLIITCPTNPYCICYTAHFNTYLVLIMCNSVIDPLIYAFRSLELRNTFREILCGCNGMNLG
Test: competition with [125I]-NDP-α-MSH, CHO-K1 membranes
pKi: −log10 of the molar value. Bridge positions count the residues as written; N and C are the ends. Square brackets hold non-standard residues; d marks the D form. 2Nal = N[C@@H](Cc1ccc2ccccc2c1)C(=O)O; Cha = N[C@@H](CC1CCCCC1)C(=O)O; Chg = N[C@H](C(=O)O)C1CCCCC1; Pen = CC(C)(S)[C@H](N)C(=O)O; Nle = CCCC[C@H](N)C(=O)O; Ahx = NCCCCCC(=O)O; GABA = NCCCC(=O)O
Outcome label depends on pKi relative to 7: at/above gives True, below gives False.

Recorded results for 3 binders are shown here.
>  <binder>
Ac-RDH[dF]RWAK-NH2 (lactam 2-8) [Ac-Arg-c(Asp-His-D-Phe-Arg-Trp-Ala-Lys)-NH2]

>  <categoryLabel>
True

$$$$
>  <binder>
Ac-[Cha]CH[dF]RW[GABA]C-NH2 (disulfide 2-8) [Ac-Cha-c(Cys-His-D-Phe-Arg-Trp-Gaba-Cys)-NH2]

>  <categoryLabel>
True

$$$$
>  <binder>
Ac-RCH[dF]RW[GABA][Pen]-NH2 (disulfide 2-8; SMILES CC(=O)N[C@@H](CCCNC(=N)N)C(=O)N[C@H]1CSSC(C)(C)[C@@H](C(N)=O)NC(=O)CCCNC(=O)[C@H](Cc2c[nH]c3ccccc23)NC(=O)[C@H](CCCNC(=N)N)NC(=O)[C@@H](Cc2ccccc2)NC(=O)[C@H](Cc2c[nH]cn2)NC1=O) [Ac-Arg-c(Cys-His-D-Phe-Arg-Trp-Gaba-Pen)-NH2]

>  <categoryLabel>
True

$$$$

Confirm if pKi reported for the binder Ac-C[dA]H[dF]RWAC-NH2 (disulfide 1-8) [Ac-c(Cys-D-Ala-His-D-Phe-Arg-Trp-Ala-Cys)-NH2] is 7 or above. False

Please indicate if the recorded pKi for Ac-VCH[dF]RW[GABA]C-NH2 (disulfide 2-8; SMILES CC(=O)N[C@H](C(=O)N[C@H]1CSSC[C@@H](C(N)=O)NC(=O)CCCNC(=O)[C@H](Cc2c[nH]c3ccccc23)NC(=O)[C@H](CCCNC(=N)N)NC(=O)[C@@H](Cc2ccccc2)NC(=O)[C@H](Cc2c[nH]cn2)NC1=O)C(C)C) [Ac-Val-c(Cys-His-D-Phe-Arg-Trp-Gaba-Cys)-NH2] meets or exceeds 7. True

Hi team, for Ac-[Chg]DH[dF]RW[GABA]K-NH2 (lactam 2-8) [Ac-Chg-c(Asp-His-D-Phe-Arg-Trp-Gaba-Lys)-NH2] , is the recorded pKi at or above 7? False

Check this binder for pKi at or above 7: Ac-[Nle]CH[dF]RW[Ahx]C-NH2 (disulfide 2-8) [Ac-Nle-c(Cys-His-D-Phe-Arg-Trp-Ahx-Cys)-NH2] True

Reported pKi at or above 7? Ac-[2Nal]CH[dF]RW[GABA]C-NH2 (disulfide 2-8) [Ac-2-Nal-c(Cys-His-D-Phe-Arg-Trp-Gaba-Cys)-NH2] True

Please check the record Ac-[Nle]C[dA]H[dF]RWAC-NH2 (disulfide 2-9) [Ac-Nle-c(Cys-D-Ala-His-D-Phe-Arg-Trp-Ala-Cys)-NH2] and state if its pKi is at or above 7. False

// inclusive: pKi at least 7? input: Ac-ICH[dF]RW[GABA]C-NH2 (disulfide 2-8; SMILES CC[C@H](C)[C@H](NC(C)=O)C(=O)N[C@H]1CSSC[C@@H](C(N)=O)NC(=O)CCCNC(=O)[C@H](Cc2c[nH]c3ccccc23)NC(=O)[C@H](CCCNC(=N)N)NC(=O)[C@@H](Cc2ccccc2)NC(=O)[C@H](Cc2c[nH]cn2)NC1=O) [Ac-Ile-c(Cys-His-D-Phe-Arg-Trp-Gaba-Cys)-NH2] True

Has Ac-LCH[dF]RW[GABA]C-NH2 (disulfide 2-8) [Ac-Leu-c(Cys-His-D-Phe-Arg-Trp-Gaba-Cys)-NH2] a recorded pKi greater than or equal to 7? True
